Ref: the nanobody polyreactivity screen of Harvey et al. (2022)

- assayProcedure: yeast display, Sf9 membrane polyspecificity reagent, FACS + sequencing; frameworks hold sequencing errors

[
  {
    "chainSequence": "QVQLVESGGGLVQAGGSLRLSCAASGFTFSKYAMGWYRPAPGKERELVAAISGSGGSTYYADSVKGRFTISRDNAKITVYLQMNSLKPEDTAVYYCAADGPGKYDYWGQGTQVTVSS",
    "polyreactivity (PSR sort gate)": "high polyreactivity"
  },
  {
    "chainSequence": "QVQLVESGGGLVQAGGSLRISCAASGGTFTKNAMGWYRQAPGKERELLAAISWRGTSTYYADSVKGRFTISRDNAKNTVYLQMNSLKPEDTAVYYCNTDRYFRRYYWYDYWGQGTQVTVSS",
    "polyreactivity (PSR sort gate)": "high polyreactivity"
  },
  {
    "chainSequence": "QVQLVESGGGLVQAGGSLRLSCAASGSTFVTNDMGWYRQAPAKERELVAAISSGTSTNYADSVKGRFTISRDNAKNTVYLQMNSLKPEDTAVYYCAADSLKRYDYWGHGTQVTVSS",
    "polyreactivity (PSR sort gate)": "low polyreactivity"
  },
  {
    "chainSequence": "QVQLVESGGGLVPAGGSLRLSCAASGFTFSGYAMGWYRQAPGKERELVAAITRRGGSTYYADSVKGRFTISRDNAKNTVYLQMNSLKPEDTAVYYCAADSGYPWELDYWGQGTQVTVSS",
    "polyreactivity (PSR sort gate)": "low polyreactivity"
  },
  {
    "chainSequence": "QVQLVESGGGLVQAGGSLRLSCAASGRTIRFNAMGWYRQAQGKESELVAAISFSGGNTYYADSVKGRFTISRDNAKNTVYIQMNSLKPDDTAVYYCAARFTYRYYNYLKYDYWGKGTQVTVSS",
    "polyreactivity (PSR sort gate)": "high polyreactivity"
  },
  {
    "chainSequence": "QVQLVESGGGLVQAGGSLRLSCAASGSIFDLNVMGWYRQAPGKERELVAAITWSGGSTYYADSVKGRFTISRDNAKNTVYLQMNSLKPEDTAVDYCAADTASGDTLRPTLLYDYWGQGTQVTVSS",
    "polyreactivity (PSR sort gate)": "low polyreactivity"
  },
  {
    "chainSequence": "QVQIVESGGGLVQAGGSLRLSCAASGRIFGFNAMAWYRQAPGKERELVAAISWSSGRTYYADSVKGRFTISRDNAKNTVYLQMNSLKPEDTAVYYCAADQWGGGDDYWGQGTQVTVSS",
    "polyreactivity (PSR sort gate)": "high polyreactivity"
  },
  {
    "chainSequence": "QVQLVESGGGLGQAGGSLRLSCAASGRIFRGYAMGWYRQAPGTDRELVATISAIGGSTYADSVKGRFTIARDNAKNTVYLQMNSLKPEDTAVYYCNKVHFRPRYFLRSDYWGQGTQGTVSS",
    "polyreactivity (PSR sort gate)": "high polyreactivity"
  },
  {
    "chainSequence": "QVQLVESGGGLVQAGGSLRISCAASGSIFSDNGMGWYRQAPGKERELVAAITIGGSTNYADSVKGRFTISRDNAKNTVYLLMKRLNPEDTAVYYCNTDFFYYGYNFPYFDYDYWGQGTQVTVSA",
    "polyreactivity (PSR sort gate)": "low polyreactivity"
  },
  {
    "chainSequence": "QVQLEESGGGLVQAGGSLRLSCAASGRTFTSNPMGLYRKAPGKERELVAAISNSGSSTYYADSVKGRFTISRDNAKNTVYLQMNSLKAEDTAVYYCAAYHYRQNTLYYYWGQGTQVTVSS",
    "polyreactivity (PSR sort gate)": "high polyreactivity"
  },
  {
    "chainSequence": "QVQIVESGGGLLQAGGSLPLTCAASGSTFDDNAQGWYRLAPGKERELVAAISYSGGSTYYADSVKGRFTISRDNAKNTVYLQMNSLKPEDPAVYYCAADDLYTDYETWWRRGDYWGQGTQVTVSS",
    "polyreactivity (PSR sort gate)": "low polyreactivity"
  }
]
